molecular target: UniProtKB P30542; experiment: Agonist activity against adenosine receptor subtypes, CHO cells with cAMP response element/SPAP reporter (forskolin-enhanced cAMP); assay type: cell-based; details: ratio to EC50 of NECA; transfected CHO cells; effect on forskolin-enhanced cAMP via SPAP
Sequence (P30542 whole entry): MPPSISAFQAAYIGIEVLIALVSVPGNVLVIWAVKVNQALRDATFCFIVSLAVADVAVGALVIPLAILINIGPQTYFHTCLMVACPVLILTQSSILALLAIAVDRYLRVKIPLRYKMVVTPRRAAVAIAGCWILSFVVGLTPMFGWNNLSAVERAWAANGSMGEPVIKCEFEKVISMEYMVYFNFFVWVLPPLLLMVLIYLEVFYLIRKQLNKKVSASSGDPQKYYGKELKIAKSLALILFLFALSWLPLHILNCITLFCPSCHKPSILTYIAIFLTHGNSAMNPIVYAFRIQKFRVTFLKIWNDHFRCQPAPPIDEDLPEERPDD
Exam item: assign class 1 to entries whose A1 (EC50 values as a ratio of that of NECA) is below 6000 and class 0 to entries at or above 6000. Note that a value of exactly 6000 receives class 0.

{"columns": ["COMPOUND STRUCTURE STRING", "SYSTEM", "CLASSIFICATION"],
 "data": [
  ["Cc1cnc([C@H]2O[C@@H](n3cnc4c(NCC(c5ccccc5)c5ccccc5)nc(N[C@@H]5CCNC5)nc43)[C@H](O)[C@@H]2O)o1.O=CO.O=CO", "UniProtKB P30542", "class 1"],
  ["CCc1nnc([C@H]2O[C@@H](n3cnc4c(NCC(c5ccccc5)c5ccccc5)nc(NCCc5ccccn5)nc43)[C@H](O)[C@@H]2O)[nH]1.O=CO", "UniProtKB P30542", "class 1"],
  ["CCC(CC)Nc1nc(NCCc2cn(C)cn2)nc2c1ncn2[C@@H]1O[C@H](c2nnc(C3CC3)o2)[C@@H](O)[C@H]1O.O=CO.O=CO", "UniProtKB P30542", "class 1"]
]}

Strictly below 6000: is that where A1 (EC50 values as a ratio of that of NECA) of Cc1cnc([C@H]2O[C@@H](n3cnc4c(NCCC5CCCCC5)nc(N[C@H](CO)Cc5ccccc5)nc43)[C@H](O)[C@@H]2O)o1.O=CO sits?
class 1

Strictly below 6000: is that where A1 (EC50 values as a ratio of that of NECA) of CCc1nnc([C@H]2O[C@@H](n3cnc4c(NCC(c5ccccc5)c5ccccc5)nc(N[C@H]5CC[C@H](N)CC5)nc43)[C@H](O)[C@@H]2O)[nH]1.O=CO sits?
class 0

###

target: adenosine 3 (Homo sapiens, UniProt P0DMS8); assay: Agonist activity against adenosine receptor subtypes, CHO cells with cAMP response element/SPAP reporter (forskolin-enhanced cAMP); format: cell-based; details: ratio to EC50 of NECA; transfected CHO cells; effect on forskolin-enhanced cAMP via SPAP
Sequence (P0DMS8 whole entry): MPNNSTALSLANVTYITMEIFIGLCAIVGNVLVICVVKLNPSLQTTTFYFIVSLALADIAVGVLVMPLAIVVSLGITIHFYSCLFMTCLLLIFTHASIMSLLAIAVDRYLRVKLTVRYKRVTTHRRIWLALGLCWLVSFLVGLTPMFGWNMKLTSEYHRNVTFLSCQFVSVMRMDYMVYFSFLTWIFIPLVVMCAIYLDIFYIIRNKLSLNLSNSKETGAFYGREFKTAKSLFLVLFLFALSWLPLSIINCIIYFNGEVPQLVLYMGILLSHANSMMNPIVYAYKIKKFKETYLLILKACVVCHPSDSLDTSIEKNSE
METRIC NAME: A3 (EC50 values as a ratio of that of NECA)

Some solved entries appear below for comparison.
{"columns": ["COMPOUND", "RECORDED VALUE"],
 "data": [
  ["CCC(CC)Nc1nc(NCCc2cn(C)cn2)nc2c1ncn2[C@@H]1O[C@H](c2nnc(C3CC3)o2)[C@@H](O)[C@H]1O.O=CO.O=CO [Example 37]", ">173"],
  ["Cc1nnc([C@H]2O[C@@H](n3cnc4c(NCC(c5ccccc5)c5ccccc5)nc(N[C@H](CO)Cc5ccccc5)nc43)[C@H](O)[C@@H]2O)[nH]1.O=CO [Example 2]", ">1087"]
]}

Entry Cc1nnc([C@H]2O[C@@H](n3cnc4c(NCC(c5ccccc5)c5ccccc5)nc(NCCc5cn(C)cn5)nc43)[C@H](O)[C@@H]2O)[nH]1.O=CO [Example 3] : reported A3 (EC50 values as a ratio of that of NECA) = ?
>698

###

target: UniProt P29274; assay: Agonist activity against adenosine receptor subtypes, CHO cells with cAMP response element/SPAP reporter (basal cAMP); type: cell-based; settings: ratio to EC50 of NECA; transfected CHO cells; effect on basal cAMP via SPAP
Sequence (P29274 whole entry): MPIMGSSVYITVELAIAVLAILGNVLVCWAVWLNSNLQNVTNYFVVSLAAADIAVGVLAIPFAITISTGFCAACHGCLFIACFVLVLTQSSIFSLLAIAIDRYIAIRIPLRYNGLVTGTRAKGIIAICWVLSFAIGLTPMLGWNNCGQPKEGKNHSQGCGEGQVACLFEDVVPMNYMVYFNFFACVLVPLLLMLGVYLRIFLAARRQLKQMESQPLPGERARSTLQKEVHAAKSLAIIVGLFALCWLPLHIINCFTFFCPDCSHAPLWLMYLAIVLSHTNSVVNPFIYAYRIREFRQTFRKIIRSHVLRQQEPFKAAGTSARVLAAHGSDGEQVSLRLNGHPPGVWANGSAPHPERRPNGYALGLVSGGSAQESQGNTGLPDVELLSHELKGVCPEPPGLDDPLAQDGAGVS
Exam item: assign Met to entries whose A2a (EC50 values as a ratio of that of NECA) is below 10 and Not met to entries at or above 10. Note that a value of exactly 10 receives Not met.

Record excerpt, results attached:
{"columns": ["COMPOUND", "CLASSIFICATION"],
 "data": [
  ["Cc1nnc([C@H]2O[C@@H](n3cnc4c(NCC(c5ccccc5)c5ccccc5)nc(NCCN5CCCC5)nc43)[C@H](O)[C@@H]2O)[nH]1.O=CO", "Not met"],
  ["CCc1nc([C@H]2O[C@@H](n3cnc4c(NCC(c5ccccc5)c5ccccc5)nc(NCCc5cn(C)cn5)nc43)[C@H](O)[C@@H]2O)no1.O=CO", "Met"],
  ["CCn1cnc(C2OC(n3cnc4c(NCC(c5ccccc5)c5ccccc5)nc(NC5CCNC5)nc43)C(O)C2O)n1.O=CO.O=CO (centres unmarked)", "Not met"],
  ["CCC(CC)Nc1nc(NCCC2CCCCC2)nc2c1ncn2C1OC(c2nnc(C3CC3)o2)C(O)C1O.O=CO.O=CO (centres unmarked)", "Not met"],
  ["CCn1cnc(C2OC(n3cnc4c(NCC(c5ccccc5)c5ccccc5)nc(NC5CCC(N)CC5)nc43)C(O)C2O)n1.O=CO.O=CO (centres unmarked)", "Not met"],
  ["CCc1nc([C@H]2O[C@@H](n3cnc4c(NCC(c5ccccc5)c5ccccc5)nc(N[C@H](CO)Cc5ccccc5)nc43)[C@H](O)[C@@H]2O)no1.O=CO", "Met"],
  ["CCn1cnc([C@H]2O[C@@H](n3cnc4c(NCC(c5ccccc5)c5ccccc5)nc(NCCc5ccccn5)nc43)[C@H](O)[C@@H]2O)n1.O=CO.O=CO", "Not met"],
  ["CCc1cc([C@H]2O[C@@H](n3cnc4c(NC(CC)CC)nc(NCCN5CCCCC5)nc43)[C@H](O)[C@@H]2O)no1.O=CO.O=CO", "Met"],
  ["CCn1cnc([C@H]2O[C@@H](n3cnc4c(NCC(c5ccccc5)c5ccccc5)nc(NCCN5CCCCC5)nc43)[C@H](O)[C@@H]2O)n1.O=CO.O=CO", "Not met"],
  ["CCc1nc([C@H]2O[C@@H](n3cnc4c(NCC(c5ccccc5)c5ccccc5)nc(NCCN5CCCCC5)nc43)[C@H](O)[C@@H]2O)no1.O=CO", "Not met"]
]}

Strictly below 10: is that where A2a (EC50 values as a ratio of that of NECA) of CCc1nc([C@H]2O[C@@H](n3cnc4c(NCC(c5ccccc5)c5ccccc5)nc(NCCN5CCOCC5)nc43)[C@H](O)[C@@H]2O)no1.O=CO sits?
Not met

Strictly below 10: is that where A2a (EC50 values as a ratio of that of NECA) of CCc1nnc([C@H]2O[C@@H](n3cnc4c(NCC(c5ccccc5)c5ccccc5)nc(NCCc5ccccn5)nc43)[C@H](O)[C@@H]2O)[nH]1.O=CO sits?
Not met

Strictly below 10: is that where A2a (EC50 values as a ratio of that of NECA) of CCC(CC)Nc1nc(N[C@@H]2CCNC2)nc2c1ncn2[C@@H]1O[C@H](c2nnc(C3CC3)o2)[C@@H](O)[C@H]1O.O=CO.O=CO sits?
Not met

Strictly below 10: is that where A2a (EC50 values as a ratio of that of NECA) of CCC(CC)Nc1nc(N[C@H]2CC[C@H](N)CC2)nc2c1ncn2[C@@H]1O[C@H](c2nnc(C3CC3)o2)[C@@H](O)[C@H]1O.O=CO.O=CO (relative stereo) sits?
Not met

Strictly below 10: is that where A2a (EC50 values as a ratio of that of NECA) of CC(C)c1nnc([C@H]2O[C@@H](n3cnc4c(NCC(c5ccccc5)c5ccccc5)nc(N[C@H](CO)Cc5ccccc5)nc43)[C@H](O)[C@@H]2O)[nH]1.O=CO sits?
Not met

Strictly below 10: is that where A2a (EC50 values as a ratio of that of NECA) of CCC(CC)Nc1nc(NCCN2CCCCC2)nc2c1ncn2C1OC(c2nnc(C3CC3)o2)C(O)C1O.O=CO.O=CO (centres unmarked) sits?
Not met

Strictly below 10: is that where A2a (EC50 values as a ratio of that of NECA) of CCC(CC)Nc1nc(NCCc2cn(C)cn2)nc2c1ncn2[C@@H]1O[C@H](c2nnc(C3CC3)o2)[C@@H](O)[C@H]1O.O=CO.O=CO sits?
Met

Strictly below 10: is that where A2a (EC50 values as a ratio of that of NECA) of Cc1nnc([C@H]2O[C@@H](n3cnc4c(NCC(c5ccccc5)c5ccccc5)nc(N[C@H](CO)Cc5ccccc5)nc43)[C@H](O)[C@@H]2O)[nH]1.O=CO sits?
Met

Strictly below 10: is that where A2a (EC50 values as a ratio of that of NECA) of CC(C)c1nnc([C@H]2O[C@@H](n3cnc4c(NCC(c5ccccc5)c5ccccc5)nc(N[C@H]5CC[C@H](N)CC5)nc43)[C@H](O)[C@@H]2O)[nH]1.O=CO sits?
Not met

Strictly below 10: is that where A2a (EC50 values as a ratio of that of NECA) of Cc1nnc([C@H]2O[C@@H](n3cnc4c(NCC(c5ccccc5)c5ccccc5)nc(N[C@H]5CC[C@H](N)CC5)nc43)[C@H](O)[C@@H]2O)[nH]1.O=CO sits?
Met

Strictly below 10: is that where A2a (EC50 values as a ratio of that of NECA) of CCc1nnc([C@H]2O[C@@H](n3cnc4c(NCC(c5ccccc5)c5ccccc5)nc(N[C@@H]5CCNC5)nc43)[C@H](O)[C@@H]2O)o1.O=CO sits?
Met

Strictly below 10: is that where A2a (EC50 values as a ratio of that of NECA) of CCc1nnc([C@H]2O[C@@H](n3cnc4c(NCC(c5ccccc5)c5ccccc5)nc(N[C@H](CO)C(C)C)nc43)[C@H](O)[C@@H]2O)[nH]1.O=CO sits?
Met

Strictly below 10: is that where A2a (EC50 values as a ratio of that of NECA) of CCc1nnc([C@H]2O[C@@H](n3cnc4c(NCC(c5ccccc5)c5ccccc5)nc(N[C@H]5CC[C@H](N)CC5)nc43)[C@H](O)[C@@H]2O)[nH]1.O=CO sits?
Not met
